target: BChE (from human serum) (Homo sapiens); assay: In vitro cholinesterase inhibition assay; type: biochemical
Sequence (P06276 29-602): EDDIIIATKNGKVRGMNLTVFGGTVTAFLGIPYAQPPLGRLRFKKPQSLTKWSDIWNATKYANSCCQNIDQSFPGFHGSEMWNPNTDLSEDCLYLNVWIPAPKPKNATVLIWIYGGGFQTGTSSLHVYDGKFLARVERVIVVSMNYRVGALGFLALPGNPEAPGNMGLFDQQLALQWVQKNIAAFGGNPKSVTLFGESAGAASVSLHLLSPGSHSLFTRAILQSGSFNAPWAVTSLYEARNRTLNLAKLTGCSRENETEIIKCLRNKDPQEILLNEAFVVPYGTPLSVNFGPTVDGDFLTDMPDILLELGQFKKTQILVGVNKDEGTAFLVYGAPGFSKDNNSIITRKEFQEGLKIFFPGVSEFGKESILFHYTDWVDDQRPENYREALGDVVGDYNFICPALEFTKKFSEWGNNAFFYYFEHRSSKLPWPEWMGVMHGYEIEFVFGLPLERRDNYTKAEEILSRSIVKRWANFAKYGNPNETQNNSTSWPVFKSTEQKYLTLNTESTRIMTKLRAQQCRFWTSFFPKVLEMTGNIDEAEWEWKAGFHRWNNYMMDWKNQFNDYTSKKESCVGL
pIC50: −log10 of the molar value.
metricName: pIC50

In [3]: df
Out[3]:
                                   compound                            testedtarget  metricname  readoutvalue
0  O=C1CN(C(=O)CCn2ccnc2)CC(O)CN1CCc1ccccc1 (stereo not shown)  BChE (from human serum) (Homo sapiens)       pIC50          5.85

====

biological target: BChE (Homo sapiens, UniProt P06276)
metricName: Ki

In [3]: df
Out[3]:
                                   molecule  metricname  readoutvalue
0  O=C1CN(C(=O)CCn2ccnc2)CC(O)CN1CCc1ccccc1 (stereo not shown)          Ki        540 nM
